Assay: Apparent elimination half life in ICR mouse liver at 80 mg/kg, po administered as single dose
Type: ADME, organism-based
Conditions: read-out: betat1/2(app) (converted)
measurement-label: half-life (h)
One number for each entry, in h.

Answered cases to consult:
INSERT INTO assay_data (mol, measurement_label, numeric_value) VALUES
  ('CCN(CC)CCOc1ccc2c(=O)c3ccc(Cl)cc3[nH]c2c1', 'half-life', 6.7),
  ('CCCN(CCC)CCOc1ccc2c(=O)c3c(F)cc(F)cc3[nH]c2c1', 'half-life', 13.8),
  ('CCCN(CCC)CCOc1ccc2c(=O)c3c(Cl)c(Cl)ccc3[nH]c2c1', 'half-life', 1.84),
  ('CCCN(CCC)CCCOc1ccc2c(=O)c3c(F)cc(F)cc3[nH]c2c1', 'half-life', 6.59);

Now look at this entry.
Query string: Which half-life reading was recorded for the compound CCCCN(CCCC)CCOc1ccc2c(=O)c3c(Cl)c(Cl)ccc3[nH]c2c1 ?
Result string: 4.63

* * *

Kindly supply the reported CL/F values for the records listed here.
Assay: Apparent clearance in ICR mouse plasma at 80 mg/kg, po administered as single dose
Assay type: ADME, organism-based
Details: read-out: CL(app) (converted)
Numbers only, in mL/min/kg.

Hey, can you go through the list below and give me CL/F for every item?
1. CCN(CC)CCOc1ccc2c(=O)c3ccc(Cl)cc3[nH]c2c1
2. CCCCN(CCCC)CCOc1ccc2c(=O)c3c(Cl)c(Cl)ccc3[nH]c2c1
3. CCCN(CCC)CCCOc1ccc2c(=O)c3c(F)cc(F)cc3[nH]c2c1
4. CCCN(CCC)CCOc1ccc2c(=O)c3c(Cl)c(Cl)ccc3[nH]c2c1

Result string:
230
431
265
295

* * *

Assay: Tmax in ICR mouse liver at 80 mg/kg, po administered as single dose
Format: ADME, organism-based
measurement-label: Tmax (h)
Answers are plain numbers, in h.

Answered cases to consult:
INSERT INTO results (compound, numeric_value) VALUES
  ('CCCN(CCC)CCOc1ccc2c(=O)c3c(F)cc(F)cc3[nH]c2c1', 7),
  ('CCN(CC)CCOc1ccc2c(=O)c3ccc(Cl)cc3[nH]c2c1', 1),
  ('CCCN(CCC)CCCOc1ccc2c(=O)c3c(F)cc(F)cc3[nH]c2c1', 4),
  ('COc1cc(NC(C)CCCN)c2ncccc2c1 (stereo unspecified)', 0.5),
  ('CCCCN(CCCC)CCOc1ccc2c(=O)c3c(Cl)c(Cl)ccc3[nH]c2c1', 2.75);

Now look at this entry.
Query string: Which Tmax reading was recorded for the compound CCCN(CCC)CCOc1ccc2c(=O)c3c(Cl)c(Cl)ccc3[nH]c2c1 ?
Result string: 7

* * *

Assay: Mutagenicity in Salmonella typhimurium TA100 assessed as increase in revertant colonies up to 10 uM in presence of S9 fraction by Ames test
Type: toxicity, subcellular
Conditions: salmonella enterica subsp. enterica serovar typhimurium
measurement-label: Activity

Answered cases to consult:
INSERT INTO measurements (mol, result) VALUES
  ('CCN(CC)CCOc1ccc2c(=O)c3c(Cl)c(Cl)ccc3[nH]c2c1', 'Non-Toxic'),
  ('CCCN(CCC)CCOc1ccc2c(=O)c3c(Cl)cc(Cl)cc3[nH]c2c1', 'Non-Toxic'),
  ('CCCCN(CCCC)CCOc1ccc2c(=O)c3c(Cl)c(Cl)ccc3[nH]c2c1', 'Non-Toxic'),
  ('CCN(CC)CCCOc1ccc2c(=O)c3c(Cl)cc(Cl)cc3[nH]c2c1', 'Non-Toxic'),
  ('CCCN(CCC)CCCOc1ccc2c(=O)c3c(F)cc(F)cc3[nH]c2c1', 'Non-Toxic');

Hey, can you go through the list below and give me Activity for every item?
1. CCCN(CCC)CCOc1ccc2c(=O)c3c(F)cc(F)cc3[nH]c2c1
2. O=c1c2ccc(OCCN(CCC(F)(F)F)CCC(F)(F)F)cc2[nH]c2cc(F)cc(F)c12

Result string:
["Non-Toxic", "Non-Toxic"]

Hey, can you go through the list below and give me Activity for every item?
1. CCCN(CCC)CCOc1ccc2c(=O)c3c(Cl)c(Cl)ccc3[nH]c2c1
2. CCCCCCOc1ccc2c(=O)c3c(F)cc(F)cc3[nH]c2c1

Result string:
1. Non-Toxic
2. Non-Toxic
